Tested Target: human Y2 receptor (human) (UniProt P49146)
Sequence (P49146 whole entry): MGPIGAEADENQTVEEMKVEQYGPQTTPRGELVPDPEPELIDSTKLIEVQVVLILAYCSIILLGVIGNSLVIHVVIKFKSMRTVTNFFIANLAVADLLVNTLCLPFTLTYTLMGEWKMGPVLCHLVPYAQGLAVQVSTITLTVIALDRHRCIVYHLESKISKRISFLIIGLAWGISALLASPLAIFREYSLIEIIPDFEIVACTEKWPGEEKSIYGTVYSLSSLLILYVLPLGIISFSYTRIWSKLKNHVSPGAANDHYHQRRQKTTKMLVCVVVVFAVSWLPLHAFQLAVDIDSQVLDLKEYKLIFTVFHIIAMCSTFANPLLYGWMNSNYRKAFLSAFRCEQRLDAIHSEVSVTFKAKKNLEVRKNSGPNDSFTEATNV
Assay Details: cell-based or functional assay
Non-standard residues stand in square brackets, D forms with d. Cha = N[C@@H](CC1CCCCC1)C(=O)O; Orn = NCCC[C@H](N)C(=O)O; Aib = CC(C)(N)C(=O)O
Quantity Kind: GBA EC50 Ratio (vs PYY(3-36)), [35S]GTPγS

>  <Binder>
Ac-S[dP]R[Orn][Cha][Cha]NL[Aib]TRQR[Cha]-NH2 (SMILES CC(=O)N[C@@H](CO)C(=O)N1CCC[C@@H]1C(=O)N[C@@H](CCCNC(=N)N)C(=O)N[C@@H](CCCN)C(=O)N[C@@H](CC1CCCCC1)C(=O)N[C@@H](CC1CCCCC1)C(=O)N[C@@H](CC(N)=O)C(=O)N[C@@H](CC(C)C)C(=O)NC(C)(C)C(=O)N[C@H](C(=O)N[C@@H](CCCNC(=N)N)C(=O)N[C@@H](CCC(N)=O)C(=O)N[C@@H](CCCNC(=N)N)C(=O)N[C@@H](CC1CCCCC1)C(N)=O)[C@@H](C)O) [Ac-[D-Pro24, Orn26, Cha27,28,36, Aib31]-PYY(23-36)]

>  <Reading>
2.2

$$$$
